B1: Azoarcus group I ribozyme (parent)
chain: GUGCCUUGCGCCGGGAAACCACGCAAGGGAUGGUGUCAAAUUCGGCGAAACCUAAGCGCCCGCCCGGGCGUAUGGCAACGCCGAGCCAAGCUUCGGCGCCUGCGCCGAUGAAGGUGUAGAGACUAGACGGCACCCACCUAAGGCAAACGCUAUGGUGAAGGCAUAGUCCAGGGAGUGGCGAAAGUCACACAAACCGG

Variants of: B1
Test: reverse-splicing fitness (ratio to wild type); higher = more active; in vitro selection; Mg2+ level not given
ASSAY METRIC: reverse-splicing fitness
Respond using a number only.

# example entries with known answers
> print(dat)
                   mutant.label  reported.measurement
1  C82G A111G A120U A145U C169G               0.00363
2        C82A A120C A145C U176G               0.00935

**Query** Quick one: reverse-splicing fitness of C82G A120C C150U C169U ?
**Result** 0.0173
